Molecular target: Streptavidin (Streptomyces avidinii) (UniProt P22629)
Sequence (P22629 whole entry, looked up): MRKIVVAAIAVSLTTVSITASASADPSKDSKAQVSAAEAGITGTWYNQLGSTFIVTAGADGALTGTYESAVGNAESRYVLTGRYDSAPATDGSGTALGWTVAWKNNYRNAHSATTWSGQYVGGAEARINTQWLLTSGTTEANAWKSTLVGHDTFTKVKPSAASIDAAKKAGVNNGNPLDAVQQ
Assay: streptavidin binders on small-molecule microarray, primary screen, artefact control for SMM compound annotation, biophysical, 635/667 nm fluorescence (AID 1147);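 further: signal reflects streptavidin binding to arrayed compounds as a control protein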
Conditions: streptavidin binding, higher = more signal
Listing of entries alongside the reported composite z-score.

{"molecule": "C=C[C@H](C)[C@H](OC(=O)Nc1ccc(OC)cc1)c1ccc(OCCO)cc1", "composite z-score": -0.911}
{"molecule": "C=C(/C(=C/C[C@@H](OC(C)=O)c1ccc(CO)o1)c1cc(C(=O)OC)ccc1OC)C(C)C", "composite z-score": -0.446}
{"molecule": "Cc1c(NC(=O)/C(C#N)=C/c2ccccc2Cl)c(=O)n(-c2ccccc2)n1C", "composite z-score": 1.73}
{"molecule": "C=CCC(OC(C)=O)[C@@H]1[C@@H](N(Cc2ccc(-c3cccc(C(F)(F)F)c3)o2)C(=O)Cc2ccc(OC)cc2)c2cc(OCCCO)ccc2N1C(=O)Cc1ccc2ccccc2c1 (some centres not stated)", "composite z-score": -0.679}
{"molecule": "CC(C)=CCCC(C)=CC(O)C1C=CC2C(=O)N(c3ccccc3)C(=O)C2N1Nc1ccccc1F (configuration not stated)", "composite z-score": 1.17}
{"molecule": "COCCOC(=O)N1C(=O)[C@@]2(c3ccccc31)[C@H](c1ccccc1OCCO)N1[C@H](c3ccccc3)[C@H](c3ccccc3)OC(=O)[C@H]1[C@@H]2C(=O)N1CCCCCCC1", "composite z-score": 3.64}
{"molecule": "Cc1ccccc1C(O)C1C=CC2C(=O)N(c3ccccc3)C(=O)C2N1Nc1ccc([N+](=O)[O-])cc1 (configuration not stated)", "composite z-score": 1.77}

----------
Assay: basal MM1S mitochondrial membrane potential changes, profiling panel, cell-based, JC-1 fluorescence, 24 h, 100 nL compound (AID 1170); further: test concentration not given here
Conditions: higher = more signal
Entries get a class label from measured z-score. See ranges: band 1: < -1; band 2: ≥ -1 and < -0.1; band 3: ≥ -0.1

{"molecule": "CCCCCN1CC=CC23O[C@@H]4/C=C\\CCC(C)OC(=O)C4[C@H]2C(=O)N(CCCCCCO)[C@@H]3C1=O (stereo partly drawn)", "classification": "band 2"}
{"molecule": "COc1ccc([Si](C)(C)[C@H]2[C@H](CC(=O)N3Cc4ccccc4C[C@H]3CO)O[C@@]3(C(=O)N(Cc4ccc(N5C(=O)c6cccc7cccc5c67)cc4)c4ccccc43)[C@@H]2C)cc1", "classification": "band 2"}
{"molecule": "CN1C(=O)C2C=CC(C(O)c3cc(C(F)(F)F)cc(C(F)(F)F)c3)N(Nc3ccccc3)C2C1=O (stereo not drawn)", "classification": "band 3"}
{"molecule": "O=C1C2C=CC(C(O)c3cccc(O)c3)N(Nc3ccccc3)C2C(=O)N1c1ccccc1 (stereo not drawn)", "classification": "band 1"}
{"molecule": "[N-]=[N+]=NCc1ccccc1[C@@H]1OC(c2ccc(OCCCO)cc2)=N[C@]1(Cc1ccccc1N=[N+]=[N-])C(=O)N1CCCCC1", "classification": "band 1"}
{"molecule": "CN1C=C(C(=O)OCCS(C)(=O)=O)C(C(=O)OCCS(C)(=O)=O)=CC(c2ccc(CO)cc2)=CC1c1cccs1 (stereo not drawn)", "classification": "band 3"}
{"molecule": "CN(C)C(=O)[C@@]1(Cc2ccccc2N=[N+]=[N-])N=C(c2ccc(OCCCO)cc2)O[C@H]1c1ccccc1", "classification": "band 1"}
{"molecule": "CC(C)C[C@@H]1NC(=O)[C@@H]2C[C@H](C(=O)NCCCCCC[N+](C)(C)C)[C@H](c3cccc(OCCO)c3)N2C1=O", "classification": "band 3"}
{"molecule": "CCOC(=O)C[C@H]1[C@H](OC(=O)c2ccc(-c3ccccc3)cc2)[C@@H](NC(=O)Cc2ccc(OC)cc2)c2cc(OCCCO)ccc2N1C(=O)Cc1ccc(OC)cc1", "classification": "band 2"}
{"molecule": "COCCOC(=O)N1C(=O)[C@@]2(c3cc(C#Cc4ccc(OC)cc4)ccc31)[C@H](C(=O)NC[C@H](O)c1ccccc1)[C@H]1C(=O)O[C@H](c3ccccc3)[C@H](c3ccccc3)N1[C@@H]2c1ccc(OCCO)cc1", "classification": "band 1"}
{"molecule": "CC(CO)N1C(=O)[C@@H]2[C@H]3C(=O)OCC=C[C@H]3OC23C=CCN(c2ccc(Cl)cc2)C(=O)[C@@H]13 (stereo partly drawn)", "classification": "band 3"}
{"molecule": "CN(C)C(=O)[C@@]1(CCC(=O)OC(C)(C)C)N=C(c2ccc(OCCCO)cc2)O[C@H]1c1ccccc1CN=[N+]=[N-]", "classification": "band 2"}
{"molecule": "C=CCNC(=O)[C@@H]1[C@H]2C(=O)O[C@H](c3ccccc3)[C@H](c3ccccc3)N2[C@H](c2ccc(OCCO)cc2)[C@@]12C(=O)N(C(=O)OCCOC)c1ccc(C#CCCO)cc12", "classification": "band 1"}

----------
Assay: binders of probe aFSTL3 on microarray, primary screen, stem cell growth factor project, biochemical, small-molecule microarray, fluorescence 635/667 (AID 1064);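 further: measures binding of the biotinylated anti-FSTL3 antibody to printed compounds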
Details: higher = more signal
measurementLabel: composite z-score

{"molecule": "Cc1ccc(F)cc1S(=O)(=O)N[C@@H]1CCN(Cc2cccc3[nH]ccc23)C1", "recordedValue": 1.05}
{"molecule": "CO[C@H]1O[C@H](CO)[C@@H](OC(=O)CCc2ccccc2)[C@H](OC(=O)c2cc3ccccc3[nH]2)[C@H]1OC(=O)c1cc2ccccc2[nH]1", "recordedValue": -0.262}
{"molecule": "CN1C(=O)C2C=CC(C(O)c3cc(C(F)(F)F)cc(C(F)(F)F)c3)N(Nc3ccccc3)C2C1=O (centres undefined)", "recordedValue": -0.481}
{"molecule": "COCC(=C=CC[C@@H](O)c1cccc(OCCO)c1)CCO", "recordedValue": -0.117}

----------
Experiment: fission yeast growth modulation, primary screen, strain 972, OD600, 24 h, no modulator (AID 1090);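 further: basal condition with compound alone and no growth modifier present; test concentration not given here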
Conditions: S. pombe 972 growth, higher = more signal, called active from +8 up or from −8 down
Label rule met when z-score is at or above -0.6; otherwise label rule not met.

{"compound": "CCOC(=O)C1=CCC(c2ccco2)N(S(=O)(=O)c2ccc(C)cc2)C1 (stereo not drawn)", "classification": "rule met"}
{"compound": "C=C(CCCC)C(=O)CC[C@H](OC(=O)c1ccccc1-c1ccccc1C(=O)O)c1ccccc1OCCO", "classification": "rule not met"}
{"compound": "C=CCC(OC(C)=O)[C@@H]1[C@@H](N(Cc2cccc3ccccc23)C(=O)c2cccc3ccccc23)c2cc(OCCCO)ccc2N1C(=O)c1ccc2ccccc2c1 (stereo partly drawn)", "classification": "rule met"}
{"compound": "CCCCC=C[C@@H](NC(=O)c1ccccc1)c1ccccc1", "classification": "rule met"}
{"compound": "CO[C@H]1O[C@H](CO)[C@@H](OC(=O)Nc2ccc(C#N)cc2)[C@@H]2OC(=O)[C@H](Cc3cccc(Br)c3)C/C=C/C[C@@H](Cc3cccc(Br)c3)C(=O)O[C@@H]12", "classification": "rule met"}
{"compound": "COC(=O)C1=CC(CCCO)=CC(C)N(Cc2cccc(OC(F)(F)F)c2)C=C1C(=O)OC (stereo not drawn)", "classification": "rule not met"}
{"compound": "COCCOC(=O)N1C(=O)[C@@]2(c3cc(C#CC4(O)CCCCCC4)ccc31)[C@H](c1ccc(OCCO)cc1)N1[C@H](c3ccccc3)[C@H](c3ccccc3)OC(=O)[C@H]1[C@@H]2C(=O)Nc1nc2ccccc2s1", "classification": "rule met"}
{"compound": "CC(C)c1ccc(NN2C(C(O)Cc3ccccc3)C=CC3C(=O)N(c4ccccc4)C(=O)C32)cc1 (stereo not drawn)", "classification": "rule not met"}
{"compound": "CC(C)CNC(=O)[C@@H]1c2ccccc2C(=O)N(C2CCCCC2)[C@H]1c1ccc(CO)cc1", "classification": "rule not met"}
{"compound": "COCCOC(=O)N1C(=O)[C@@]2(c3cc(C#CCNC(N)=O)ccc31)[C@H](c1ccc(OCCO)cc1)N1[C@H](c3ccccc3)[C@H](c3ccccc3)OC(=O)[C@H]1[C@@H]2C(N)=O", "classification": "rule met"}
{"compound": "COCCOC(=O)N1C(=O)[C@@]2(c3cc(C#Cc4ccc(OC)cc4)ccc31)[C@H](c1ccc(OCCO)cc1)N1[C@H](c3ccccc3)[C@H](c3ccccc3)OC(=O)[C@H]1[C@@H]2C(=O)Nc1nc2ccccc2s1", "classification": "rule met"}
{"compound": "COc1ccc(C#Cc2ccc3c(c2)[C@]2(C(=O)N3)[C@H](c3ccc(OCCO)cc3)N3[C@H](c4ccccc4)[C@H](c4ccccc4)OC(=O)[C@H]3[C@@H]2C(=O)N2CCc3cc(OC)c(OC)cc3C2)cc1", "classification": "rule met"}

----------
Target: Follistatin-related protein 3 (Homo sapiens) (UniProt O95633)
Sequence (O95633 whole entry, looked up): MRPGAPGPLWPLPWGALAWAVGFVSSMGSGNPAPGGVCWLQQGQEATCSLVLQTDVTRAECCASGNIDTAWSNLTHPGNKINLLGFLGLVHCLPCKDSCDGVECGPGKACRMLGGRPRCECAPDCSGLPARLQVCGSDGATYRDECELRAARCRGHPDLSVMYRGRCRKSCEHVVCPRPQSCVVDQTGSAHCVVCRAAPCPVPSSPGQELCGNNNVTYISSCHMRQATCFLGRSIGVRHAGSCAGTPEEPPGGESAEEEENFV
Assay: FSTL3 binders on small-molecule microarrays, primary screen, biochemical, small-molecule microarray, 635 nm fluorescence (AID 1105);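 further: score merges emission near 667 nm and signal to noise per printed spot across three slides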
Conditions: FSTL3 binding, higher = more signal
Label y when composite z-score is at or above 0.3; otherwise label n.

{"compound": "O=C1OCCC=C[C@H]2OC34C=CCN(c5ccc(Cl)cc5)C(=O)[C@H]3N(CCCCCCO)C(=O)[C@@H]4C12 (stereo partly drawn)", "classification": "n"}
{"compound": "COc1ccc(C(O)C2C=CC3C(=O)N(c4ccccc4)C(=O)C3N2Nc2ccc(C(C)C)cc2)c2ccccc12 (stereo not drawn)", "classification": "y"}
{"compound": "O=C1O[C@H](c2ccccc2)[C@H](c2ccccc2)N2[C@H]1[C@@H](C(=O)Nc1nc3ccccc3s1)[C@]1(C(=O)Nc3ccc(C#CC4=CCCCC4)cc31)[C@H]2c1ccc(O)cc1", "classification": "y"}
{"compound": "C=C[C@H](C)[C@H](OC(=O)Nc1ccc(OC)cc1)c1ccc(OCCO)cc1", "classification": "n"}
{"compound": "C=CCN1C(=O)[C@]2(O[C@H](CCO)[C@@H]([Si](C)(C)c3ccc(OC)cc3)[C@@H]2C)c2cc(N3C(=O)COc4ccccc43)ccc21", "classification": "y"}
{"compound": "CCCCNC(=O)c1ccc(C#C[Si](C(C)C)(C(C)C)C(C)C)c(OC(C)=O)c1", "classification": "y"}
{"compound": "CCCC=C(CCC)[C@@H](NC(=O)CCc1ccccc1)c1ccc(C(F)(F)F)cc1", "classification": "y"}
